- System: T1, HP0221-T25 (NifU) (Helicobacter pylori strain 26695, UniProt O25009 2-326)
- T1 sequence (looked up): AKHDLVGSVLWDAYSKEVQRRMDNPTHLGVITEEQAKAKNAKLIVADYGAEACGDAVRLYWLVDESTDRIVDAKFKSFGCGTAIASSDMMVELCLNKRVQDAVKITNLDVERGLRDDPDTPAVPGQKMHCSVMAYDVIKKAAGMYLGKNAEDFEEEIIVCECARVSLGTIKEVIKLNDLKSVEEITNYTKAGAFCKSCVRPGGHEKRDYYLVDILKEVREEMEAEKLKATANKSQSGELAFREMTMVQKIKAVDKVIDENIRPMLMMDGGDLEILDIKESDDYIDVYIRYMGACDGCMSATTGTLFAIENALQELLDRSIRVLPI
- Method notes: two-hybrid
Readout kind: growth OD595 in M63-maltose (OD595)
Give bare numbers, in OD595.

T18-HP0220 (natural protein, Helicobacter pylori strain 26695, UniProt O25008 2-387, looked up) LQRIYLDNNATTRIDPKVKEIMDPFLRDHYGNPSSLHQFGTETHPAIAEALDKLYKGINARDIDDVIITSCATESNNWVLKGVYFDECLKKGKNHIVTTVAEHPAVRSTCNFLESLGVEVTYLPINEHGSITAEQVKEAITEKTALVSVMWANNETGLIFPIEEIGAICKEKGVLFHTDAVQAIGKIPVDVLKANADFLSFSAHKFHGPKGIGGLYIRSGVGLTPLFHGGEHMNGRRSGTLNVPYIVGMGEAMKLAVEHLDYEKEVVGKLRDKLEEALLKIPDVMVVGDRIHRVPNTTLVSVRGIEGEAMLWDLNRSNIAASTGSACASEDLEANPVMVAIGASKELAHTAIRLSLSRFNTEAEIDKTIEVFSQAAVRLRNISSSY : 0.11

Next binder, please.
Entry under review: T18-HP1540 (natural protein, Helicobacter pylori strain 26695, UniProt O26065 2-167, looked up) ADIQRRDFLGMSLASVTAIGAIASLVAMKKTWDPLPSVVSAGFTTIDVANMQEGQFSTVEWRGKPVYILKRSKKEGFNEKRDFKVGESVFTTAIQICTHLGCIPTYQDEEKGFLCPCHGGRFTSDGVNIAGTPPPRPFDIPPFKIEGTKITFGEAGAEYKKMMAKA . Reported growth OD595 in M63-maltose?
0.44
